Source of measurements: patent US10941157B2

# Test system: Collectotrichum graminicola (Cg)
# PROCEDURE DETAILS: In vitro pathogen growth inhibition assay, Cg
# Assay type: cell-based
# STATED CONDITIONS: 48 h, ≥90% growth inhibition; 48 hours; vs 2% DMSO control; read-out: Compound Concentration (ppm) sufficient for ≥90% inhibition of Cg
Each item that follows carries a reported IC90.

// worked examples, IC90 included
TEST SMILES	IC90
COc1ccc(F)cc1[C@H](Cn1c(=O)n([C@H](C)C(=O)N2CCCC2)c(=O)c2c(C)c(-n3nccn3)sc21)OCCC#N	2 µg/mL
COc1ccc(F)cc1[C@H](Cn1c(=O)n([C@H](C)C(=O)N(C)C(C)C)c(=O)c2c(C)c(-n3nccn3)sc21)OCCC#N	0.4 µg/mL
COCCO[C@@H](Cn1c(=O)n(C(C)(C)C(=O)N2CCCC2)c(=O)c2c(C)c(-n3nccn3)sc21)c1cc(F)ccc1OC	10 µg/mL
COc1ccc(F)cc1[C@H](Cn1c(=O)n(C(C)(C)C(=O)NC(C)C)c(=O)c2c(C)c(-n3cccn3)sc21)OCC#N	2 µg/mL

Ask: Item: "CCNC(=O)C(C)(C)n1c(=O)c2c(C)c(-n3nccn3)sc2n(C[C@H](OCCC#N)c2ccccc2OC)c1=O" Test system: Collectotrichum graminicola (Cg) Read-out: IC90 Value: ?
Reply: 2 µg/mL

Ask: Try "COc1ccc(F)cc1[C@H](Cn1c(=O)n(C(C)(C)C(=O)NC(C)C)c(=O)c2c(C)c(-n3nccn3)sc21)OCC#N" next.
Reply: ≥ 0.4 µg/mL

---

# Test system: Phytophthora capsici (Pc)
# PROCEDURE DETAILS: In vitro pathogen growth inhibition assay, Pc
# Type: cell-based
# STATED CONDITIONS: 48 h, ≥90% inhibition, 48 hours vs 2% DMSO control, read-out: Compound Concentration (ppm) sufficient for ≥90% inhibition of growth, Pc
Each item that follows carries a reported IC90.

MOLECULE	TARGET OR SYSTEM	IC90
COc1ccc(F)cc1[C@H](Cn1c(=O)n([C@@H](C)C(=O)N2CCCC2)c(=O)c2c(C)c(-n3nccn3)sc21)OC(C)C [Compound I-058]	Phytophthora capsici (Pc)	≥ 10 µg/mL
COc1ccc(F)cc1[C@H](Cn1c(=O)n(C(C)(C)C(N)=O)c(=O)c2c(C)c(-c3ncco3)sc21)OC1CCOCC1 [Compound I-101]	Phytophthora capsici (Pc)	50 µg/mL
CCNC(=O)C(C)(C)n1c(=O)c2c(C)c(-c3ncco3)sc2n(C[C@H](OC2CCC(=O)CC2)c2ccccc2OC)c1=O [Compound I-105]	Phytophthora capsici (Pc)	> 50 µg/mL

Ask: Item: COc1ccc(F)cc1[C@H](Cn1c(=O)n(C(C)(C)C(=O)N2CCCCC2)c(=O)c2c(C)c(-n3nccn3)sc21)OCC(C)C [Compound I-027] Test system: Phytophthora capsici (Pc) Read-out: IC90 Value: ?
Reply: > 50 µg/mL

Ask: Try COc1ccc(F)cc1[C@H](Cn1c(=O)n([C@H](C)C(=O)N(C)C(C)C)c(=O)c2c(C)c(-n3nccn3)sc21)OCCO [Compound I-090] next.
Reply: 2 µg/mL

Ask: Try COCCO[C@@H](Cn1c(=O)n(CC(=O)NC(C)C)c(=O)c2c(C)c(-n3nccn3)sc21)c1cc(F)ccc1OC [Compound I-086] next.
Reply: > 50 µg/mL

Ask: Try COCCCO[C@@H](Cn1c(=O)n([C@H](C)C(=O)NC(C)C)c(=O)c2c(C)c(-n3nccn3)sc21)c1cc(F)ccc1OC [Compound I-094] next.
Reply: > 50 µg/mL

Ask: Try CCO[C@@H](Cn1c(=O)n(C(C)(C)C(=O)N2CCCC2)c(=O)c2c(C)c(-n3nccn3)sc21)c1cc(F)ccc1OC [Compound I-055] next.
Reply: > 50 µg/mL

Ask: Try COc1ccc(F)cc1[C@H](Cn1c(=O)n(C(C)(C)C(=O)N2CCOCC2)c(=O)c2c(C)c(-n3nccn3)sc21)OC(C)C [Compound I-021] next.
Reply: > 50 µg/mL

Ask: Try COc1ccc(F)cc1[C@H](Cn1c(=O)n(C(C)(C)C(=O)NC(C)C)c(=O)c2c(C)c(-n3nccn3)sc21)OC1CCC(=O)CC1 [Compound I-050] next.
Reply: 50 µg/mL

Ask: Try COc1ccc(F)cc1[C@H](Cn1c(=O)n([C@@H](C)C(=O)NC2CCC2)c(=O)c2c(C)c(-n3nccn3)sc21)OCCO [Compound I-091] next.
Reply: > 50 µg/mL

Ask: Try COc1ccc(F)cc1[C@H](Cn1c(=O)n(C(C)(C)C(N)=O)c(=O)c2c(C)c(-n3nccn3)sc21)OC1CCC(=O)CC1 [Compound I-124] next.
Reply: 50 µg/mL

Ask: Try COc1ccc(F)cc1[C@H](Cn1c(=O)n(C(C)(C)C(=O)NC(C)C)c(=O)c2c(C)c(-n3nccn3)sc21)OC1CCOCC1 [Compound I-030] next.
Reply: 50 µg/mL

---

Each item that follows carries a reported IC90.
# System: Rhizoctonia solani (Rs)
# PROCEDURE DETAILS: In vitro pathogen growth inhibition assay, Rs (mycelial plugs)
# Format: cell-based
# STATED CONDITIONS: Rhizoctonia solani, 48 h, ≥90% growth inhibition; mycelial plugs; 48 hours; vs 2% DMSO control; read-out: Compound Concentration (ppm) sufficient for ≥90% inhibition of Rs
// units = µg/mL; emit number, no label

// worked examples, IC90 included
COMPOUND	TARGET OR SYSTEM	IC90 [µg/mL]
COCCO[C@@H](Cn1c(=O)n([C@H](C)C(=O)NC(C)C)c(=O)c2c(C)c(-n3cccn3)sc21)c1cc(F)ccc1OC [Compound I-310]	Rhizoctonia solani (Rs)	0.08
CCc1ccc(F)cc1[C@H](Cn1c(=O)n(C(C)(C)C(=O)NC(C)C)c(=O)c2c(C)c(-n3nccn3)sc21)OC[C@H](C)C#N [Compound I-284]	Rhizoctonia solani (Rs)	0.08
COc1ccc(F)cc1[C@@](O)(CCO)Cn1c(=O)n(C(C)(C)C(=O)NC(C)C)c(=O)c2c(C)c(-n3nccn3)sc21 [Compound I-276]	Rhizoctonia solani (Rs)	0.08
COc1ccccc1[C@H](Cn1c(=O)n(C(C)(C)C(=O)NC(C)C)c(=O)c2c(C)c(-n3cccn3)sc21)OCCC#N [Compound I-192]	Rhizoctonia solani (Rs)	0.08
COc1ccc(F)cc1CCn1c(=O)n(C(C)(C)C(=O)NC(C)C)c(=O)c2c(C)c(-n3nccn3)sc21 [Compound I-296]	Rhizoctonia solani (Rs)	2

Ask: Which IC90 is listed for CCOC(=O)c1sc2c(c1C)c(=O)n(C(C)(C)C(=O)N1CCCC1)c(=O)n2C[C@H](OCCOC)c1cc(F)ccc1OC [Compound I-179] ?
Reply: 10

Ask: Try Cc1c(-n2nccn2)sc2c1c(=O)n(C(C)(C)C(=O)NC(C)C)c(=O)n2C[C@H](OCCO)c1cc(F)ccc1O [Compound I-271] next.
Reply: 2

Ask: Try COc1ccc(F)cc1[C@H](Cn1c(=O)n(C(C)(C)C(=O)NC(C)C)c(=O)c2c(C)c(-n3nccn3)sc21)OCC(C)(C)C#N [Compound I-213] next.
Reply: 0.08

Ask: Try COc1ccc(F)cc1[C@H](Cn1c(=O)n(C(C)(C)C(=O)NC(C)C)c(=O)c2c(C)c(-n3nccn3)sc21)OCC#N [Compound I-210] next.
Reply: 0.08

Ask: Try CCNC(=O)[C@H](C)n1c(=O)c2c(C)c(-n3nccn3)sc2n(C[C@H](OCCC#N)c2cc(F)ccc2OC)c1=O [Compound I-290] next.
Reply: 2

---

# Tested on: Botrtyis cinerea (Bc)
# PROCEDURE DETAILS: In vitro pathogen growth inhibition assay, Bc
# Assay type: cell-based
# STATED CONDITIONS: 48 h, ≥90% growth inhibition; 48 hours; vs 2% DMSO control; read-out: Compound Concentration (ppm) sufficient for ≥90% inhibition of Bc
Each item that follows carries a reported IC90.
// units = µg/mL; emit number, no label

// worked examples, IC90 included
TEST SMILES	UNIT DESCRIPTOR	IC90
CCOC(=O)c1sc2c(c1C)c(=O)n(C(C)(C)C(=O)NC(C)C)c(=O)n2C[C@H](OCCOC)c1cc(F)ccc1OC	µg/mL	2
Cc1c(-n2cccn2)sc2c1c(=O)n(C(C)(C)C(=O)NC(C)C)c(=O)n2C[C@H](OCCC#N)c1cc(F)ccc1O	µg/mL	10
Cc1c(-n2nccn2)sc2c1c(=O)n(C(C)(C)C(=O)NC(C)C)c(=O)n2C[C@H](OCC(C)(C)C#N)c1cc(C#N)ccc1OCC#N	µg/mL	10
CCOC(=O)c1sc2c(c1C)c(=O)n([C@@H](C)C(=O)N(C)C(C)C)c(=O)n2C[C@H](OCCC#N)c1cc(F)ccc1OC	µg/mL	2
CCc1ccc(F)cc1[C@H](Cn1c(=O)n(C(C)(C)C(=O)NC(C)C)c(=O)c2c(C)c(-n3nccn3)sc21)O[C@H]1C[C@@H](O)C1	µg/mL	2

Next compound, please.
Ask: Which IC90 is listed for "CCOC(=O)c1sc2c(c1C)c(=O)n(C(C)(C)C(N)=O)c(=O)n2C[C@H](OCCC#N)c1cc(F)ccc1OC" ?
Reply: 2
